test-system: UniProt P11413
Sequence (P11413 whole entry): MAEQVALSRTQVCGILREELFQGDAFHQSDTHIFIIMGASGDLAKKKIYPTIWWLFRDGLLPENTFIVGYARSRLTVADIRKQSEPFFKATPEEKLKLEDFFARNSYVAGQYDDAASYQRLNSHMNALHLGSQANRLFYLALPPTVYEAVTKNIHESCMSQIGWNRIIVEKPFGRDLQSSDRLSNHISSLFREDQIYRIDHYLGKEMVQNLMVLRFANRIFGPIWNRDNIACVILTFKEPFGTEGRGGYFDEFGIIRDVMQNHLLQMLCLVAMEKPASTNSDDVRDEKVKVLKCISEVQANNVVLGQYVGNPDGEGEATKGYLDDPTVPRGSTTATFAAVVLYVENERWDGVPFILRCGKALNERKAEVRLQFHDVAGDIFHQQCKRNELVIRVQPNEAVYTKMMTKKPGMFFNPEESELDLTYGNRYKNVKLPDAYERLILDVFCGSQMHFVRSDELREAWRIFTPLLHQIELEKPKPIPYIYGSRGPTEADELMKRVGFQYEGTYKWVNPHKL
assay-protocol: human G6PD enzyme inhibitors, dose response, selectivity assay for P. falciparum G6PD inhibitor project, biochemical, fluorescence (AID 504792)
Format: functional
Active and inactive are the calls of the source. No stated cut-off is given here; in the data, active = IC50 of 20 µM or less and inactive = more.
endpoint-name: IC50

The examples below pair each entry with its known result.
Field request: IC50 | item: CC(=O)OCC1(C)CN(c2ccccc2)NC1=O (centres undefined) 46.7 µM (inactive)

Field request: IC50 | item: COc1ccc(NS(=O)(=O)c2ccc(N3CCCC3)c(NC(=S)Nc3cccc(C)c3C)c2)cc1 > 80 µM (inactive)

Field request: IC50 | item: CCN1/C(=C/C=C/C=C/C=C/c2sc3ccccc3[n+]2CC)Sc2ccccc21 > 80 µM (inactive)

---
Field request: IC50 | item: O=C(O)c1cc(N2C(=O)C=CC2=O)cc(N2C(=O)C=CC2=O)c1 61.8 µM (inactive)
